Below, each of the compounds is paired with its reported Ki value.
- experiment.summary: Competitive inhibition of bovine liver beta-glucosidase assessed as formation of 4-methylumbelliferone from 4-methylumbelliferyl […] by Lineweaver-Burk Plot analysis
- Design: species or system Bos taurus
assay.metric: Ki (nM)

smiles.string	unit.tag	result.number
O=C(CCC(F)(F)C(F)(F)C(F)(F)C(F)(F)C(F)(F)C(F)(F)F)NCCCCCCCCCNC(=S)N1[C@@H]2CO[C@H]1[C@H](O)[C@@H](O)[C@@H]2O	nM	330
O=C(CCC(F)(F)C(F)(F)C(F)(F)C(F)(F)F)NCCCCCCCCCNC(=S)N1[C@@H]2CO[C@H]1[C@H](O)[C@@H](O)[C@@H]2O	nM	340
O=C(CCC(F)(F)C(F)(F)C(F)(F)C(F)(F)F)NCCCCNC(=S)N1[C@@H]2CO[C@H]1[C@H](O)[C@@H](O)[C@@H]2O	nM	6400
O=C(CCC(F)(F)C(F)(F)C(F)(F)C(F)(F)C(F)(F)C(F)(F)F)NCCCCNC(=S)N1[C@@H]2CO[C@H]1[C@H](O)[C@@H](O)[C@@H]2O	nM	1100

###

Recorded pKi, one value per entry.
- assay.target: Lysosomal acid glucosylceramidase (Homo sapiens)
- Sequence (P04062 whole entry): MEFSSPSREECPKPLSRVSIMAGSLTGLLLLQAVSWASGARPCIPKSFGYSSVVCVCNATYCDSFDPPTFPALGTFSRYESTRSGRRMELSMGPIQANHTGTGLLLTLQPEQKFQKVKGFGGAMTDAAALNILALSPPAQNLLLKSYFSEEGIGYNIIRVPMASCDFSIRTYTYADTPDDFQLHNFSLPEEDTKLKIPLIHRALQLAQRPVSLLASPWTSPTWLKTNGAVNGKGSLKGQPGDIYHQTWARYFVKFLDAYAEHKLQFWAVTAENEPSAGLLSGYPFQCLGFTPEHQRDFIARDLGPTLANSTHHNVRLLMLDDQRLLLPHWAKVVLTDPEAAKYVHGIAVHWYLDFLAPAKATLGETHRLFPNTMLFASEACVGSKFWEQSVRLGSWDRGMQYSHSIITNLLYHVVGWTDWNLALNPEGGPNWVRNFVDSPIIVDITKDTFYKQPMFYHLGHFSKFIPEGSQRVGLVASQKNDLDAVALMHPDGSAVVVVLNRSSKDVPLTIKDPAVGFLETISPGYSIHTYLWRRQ
- experiment.summary: Inhibition of human GCase assessed as formation of 4-methylumbelliferone from […] at pH 5 in presence of beta-cyclodextrin by luminescence spectrophotometry
pKi: −log10 of the molar value.
assay.metric: pKi

smiles.string	result.number
O=C(CCC(F)(F)C(F)(F)C(F)(F)C(F)(F)F)NCCCCNC(=S)N1[C@@H]2CO[C@H]1[C@H](O)[C@@H](O)[C@@H]2O	5.35
O=C(CCC(F)(F)C(F)(F)C(F)(F)C(F)(F)F)NCCCCCCCCCNC(=S)N1[C@@H]2CO[C@H]1[C@H](O)[C@@H](O)[C@@H]2O	5.09
O=C(CCC(F)(F)C(F)(F)C(F)(F)C(F)(F)C(F)(F)C(F)(F)F)NCCCCNC(=S)N1[C@@H]2CO[C@H]1[C@H](O)[C@@H](O)[C@@H]2O	5.85
O=C(CCC(F)(F)C(F)(F)C(F)(F)C(F)(F)C(F)(F)C(F)(F)F)NCCCCCCCCCNC(=S)N1[C@@H]2CO[C@H]1[C@H](O)[C@@H](O)[C@@H]2O	5.14

###

- Organism: Homo sapiens
- experiment.summary: Inhibition of human lysosomal beta-hexosaminidase assessed as formation of 4-methylumbelliferone from 4-methylumbelliferyl N-acetyl-beta-D-glucosaminide up to 200 uM by luminescence spectrophotometry
Activity calls are given as the source filed them. No cut-off for these calls is given here.

smiles.string	inhibition
O=C(CCC(F)(F)C(F)(F)C(F)(F)C(F)(F)C(F)(F)C(F)(F)F)NCCCCNC(=S)N1[C@@H]2CO[C@H]1[C@H](O)[C@@H](O)[C@@H]2O	inactive
O=C(CCC(F)(F)C(F)(F)C(F)(F)C(F)(F)F)NCCCCNC(=S)N1[C@@H]2CO[C@H]1[C@H](O)[C@@H](O)[C@@H]2O	inactive
O=C(CCC(F)(F)C(F)(F)C(F)(F)C(F)(F)F)NCCCCCCCCCNC(=S)N1[C@@H]2CO[C@H]1[C@H](O)[C@@H](O)[C@@H]2O	inactive
O=C(CCC(F)(F)C(F)(F)C(F)(F)C(F)(F)C(F)(F)C(F)(F)F)NCCCCCCCCCNC(=S)N1[C@@H]2CO[C@H]1[C@H](O)[C@@H](O)[C@@H]2O	inactive
